Each record here notes measured speed of sound.
Conditions: 303.15 K; 101 kPa; Liquid; Sing-around technique in a fixed-path interferometer
I only need the number, in m/s, no unit after it.

Before answering, review these 3 worked examples.
{"MOLECULE SMILES": "CCCCO", "UNIT OF MEASUREMENT": "m/s", "speed of sound": 1226.5}
{"MOLECULE SMILES": "CCCCCCCC", "UNIT OF MEASUREMENT": "m/s", "speed of sound": 1152.1}
{"MOLECULE SMILES": "CCCCCCCCCC", "UNIT OF MEASUREMENT": "m/s", "speed of sound": 1215.2}

// sample CCCCCC , its speed of sound was 1055.2

* * *

Conditions: 298.15 K; 101 kPa; Liquid
Entries annotated with measured viscosity
The response must be a number in mPa·s with no trailing unit.

For reference, reported viscosity for CCCCCCCCCC [decane] stands at 0.852

Lab note: CCCCO [butan-1-ol] gave viscosity of 2.573

Note to self: viscosity recorded for CCCCCCCC [octane] was 0.518

Record CCCCCC [hexane] . Reported viscosity: 0.313

* * *

Conditions: 303.15 K; 101 kPa; Liquid
A collection of compounds and their measured mass density
Reply numerically in kg/m3, unit not repeated.

{"MOLECULE SMILES": "CCCCCCCC", "mass density [kg/m3]": 694.497}

The recorded mass density for entry CCCCCC equals 650.369

Looking up CCCCCCCCCC , I see its mass density listed as 723.042

The reported value for CCCCO in terms of mass density is 803.155

* * *

Settings: 308.15 K; 101 kPa; Liquid; Sing-around technique in a fixed-path interferometer
Numbers after ± are expanded uncertainties.
ASSAY METRIC: speed of sound
Dear colleague, please send the value followed by its unit.

Example entries begin here.
{"MOLECULE": "CCCCO [butan-1-ol]", "speed of sound": "1209.8 ± 1.2 m/s"}
{"MOLECULE": "CCCCCC [hexane]", "speed of sound": "1032.9 ± 1.1 m/s"}

Entry under test: CCCCCCCC [octane] . Its speed of sound was 1131.7 ± 1.2 m/s

Consider CCCCCCCCCC [decane] . Its measured speed of sound is 1195.6 ± 1.2 m/s

* * *

Conditions: 298.15 K; 101 kPa; Liquid
± gives the expanded uncertainty stated by the source.
ASSAY METRIC: mass density
Respond with a number, then the unit of measure.

{"MOLECULE SMILES": "CCCCCC", "ASSAY METRIC": "mass density", "ASSAY VALUE": "655.072 ± 1.1 kg/m3"}
{"MOLECULE SMILES": "CCCCO", "ASSAY METRIC": "mass density", "ASSAY VALUE": "805.907 ± 0.77 kg/m3"}

mass density for CCCCCCCC is 698.58 ± 0.99 kg/m3

# mass density of CCCCCCCCCC = 726.806 ± 0.93 kg/m3

* * *

Details: 308.15 K; 101 kPa; Liquid
Recorded measurements of mass density, one per entry
Express the result in kg/m3 but write the number alone.

Reported mass density for CCCCCCCC was 690.416

Looking up CCCCO , I found its mass density recorded as 799.249

// sample CCCCCC , its mass density was 645.767

Data point: CCCCCCCCCC ; mass density = 719.23
